Data provenance: patent US10786508B2

Here the recorded activation at 1 µM is given for each entry.
molecular target: glucocerebrosidase (Gcase) (Homo sapiens, UniProt P04062); construct: micellar solution containing 10 nM GCase and 100 nM saposin C; assay: Glucocerebrosidase (Gcase) activation assay, 4-methylumbelliferyl-beta-D-glucopyranoside substrate, with saposin C; assay type: biochemical; settings: 1 μM test compound; 10 nM GCase, 100 nM saposin C, pH 4.7; read-out: Percent Gease Activation 1 μM Test Compound
Sequence (P04062 40-536): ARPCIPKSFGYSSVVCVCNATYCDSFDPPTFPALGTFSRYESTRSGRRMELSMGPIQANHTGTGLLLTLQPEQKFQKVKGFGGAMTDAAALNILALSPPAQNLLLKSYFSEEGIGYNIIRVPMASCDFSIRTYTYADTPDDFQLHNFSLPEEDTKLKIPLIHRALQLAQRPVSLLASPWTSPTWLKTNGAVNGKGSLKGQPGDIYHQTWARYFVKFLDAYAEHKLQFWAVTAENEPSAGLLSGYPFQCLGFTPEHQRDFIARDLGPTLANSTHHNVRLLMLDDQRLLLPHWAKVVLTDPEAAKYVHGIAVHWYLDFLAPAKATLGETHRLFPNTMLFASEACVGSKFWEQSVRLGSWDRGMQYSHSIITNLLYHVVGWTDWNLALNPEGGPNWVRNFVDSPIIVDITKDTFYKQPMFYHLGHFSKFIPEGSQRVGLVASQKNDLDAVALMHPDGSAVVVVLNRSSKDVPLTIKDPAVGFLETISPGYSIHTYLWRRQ

| compound | property-name | val |
| --- | --- | --- |
| COCc1cc(C(C)C)n2cnc(C(=O)NC(C)(C)c3cccc(OC4CC4)c3)c2n1 [III-57] | activation at 1 µM | > 60% |
| Cc1cc(C)n2cnc(C(=O)Nc3ccc4cn[nH]c4c3)c2n1 [III-11] | activation at 1 µM | < 30% |
| Cc1cc(C)n2cnc(C(=O)NC3CCCc4ccccc43)c2n1 (centres unmarked) [III-71] | activation at 1 µM | 30 to 60% |
| CCCCO[C@H]1[C@@H]2CC[C@H]1C[C@@H](NC(=O)c1ncn3c(C)cc(C)nc13)C2 [III-85] | activation at 1 µM | > 60% |
| Cc1cc(C)n2cnc(C(=O)Nc3ccc4c(=O)cc(C)oc4c3)c2n1 [III-17] | activation at 1 µM | < 30% |

Reported activation at 1 µM ( CCOCc1cccc(C(C)(C)NC(=O)c2ncn3c(COC)cc(C4CC4)nc23)c1 [III-59] ) = 30 to 60%

Reported activation at 1 µM ( CCCCCCO[C@H]1CC[C@H](NC(=O)c2ncn3c(C)cc(C)nc23)C1 [III-47] ) = > 60%

Reported activation at 1 µM ( COCC#Cc1ccc(NC(=O)c2ncn3c(C)cc(C)nc23)cc1 [III-2] ) = 30 to 60%

Reported activation at 1 µM ( COCc1cc(C2CC2)nc2c(C(=O)NC3(C)CCOc4c(F)ccc(F)c43)ncn12 (centres unmarked) [III-33] ) = > 60%

Reported activation at 1 µM ( COc1ccc(F)cc1C(C)NC(=O)c1ncn2c(C)cc(C)nc12 (centres unmarked) [III-79] ) = 30 to 60%

Reported activation at 1 µM ( COc1cc(NC(=O)c2ncn3c(C)cc(C)nc23)ccc1-c1cnco1 [III-14] ) = < 30%

Reported activation at 1 µM ( Cc1cc(C)n2cnc(C(=O)Nc3ccc4[nH]c(-c5ccco5)nc4c3)c2n1 [III-20] ) = < 30%

Reported activation at 1 µM ( Cc1cc(C)n2cnc(C(=O)Nc3ccc4[nH]c(C)cc4c3)c2n1 [III-7] ) = < 30%

Reported activation at 1 µM ( Cc1cc(C(C)C)n2cnc(C(=O)Nc3cccc4c3CCC4)c2n1 [III-45] ) = > 60%

Reported activation at 1 µM ( COCc1cc(C(C)C)nc2c(C(=O)NC(C)(C)c3cccc(OC4CC4)c3)ncn12 [III-58] ) = > 60%

Reported activation at 1 µM ( Cc1cc(C)n2cnc(C(=O)NC(C)(C)c3cccc(Cl)c3)c2n1 [III-82] ) = > 60%

Reported activation at 1 µM ( Cc1cc(C)n2cnc(C(=O)Nc3ccc(-c4ccco4)cc3)c2n1 [III-30] ) = > 60%

Reported activation at 1 µM ( Cc1cc(C(C)C)n2cnc(C(=O)N[C@H]3CCCc4ccccc43)c2n1 [III-35] ) = < 30%

Reported activation at 1 µM ( CCC(C)(NC(=O)c1ncn2c(C)cc(C)nc12)c1ccc(F)cc1 (centres unmarked) [III-43] ) = > 60%

Reported activation at 1 µM ( COc1ccccc1[C@H](C)NC(=O)c1ncn2c(C)cc(C)nc12 [III-75] ) = 30 to 60%
